Test system: M. marinum CAMP 5644
Test: antimycobacterial MIC, broth dilution micromethod
Assay type: cell-based
Conditions: Mycobacterium marinum, CAMP5644, 504 h; Table S3; 21 days at 28 °C
This listing pairs molecules with measured MIC.
observed.property: MIC (µg/mL)

molecule: CO[C@H]1/C=C/O[C@@]2(C)Oc3c(C)c(O)c4c(O)c(c(/C=N/N5CCN(C)CC5)c(O)c4c3C2=O)NC(=O)/C(C)=C\C=C\[C@H](C)[C@H](O)[C@@H](C)[C@@H](O)[C@@H](C)[C@H](OC(C)=O)[C@@H]1C [RIF, rifampicin, reference compound]
observed.property: MIC
unit.label: µg/mL
meas.value: 0.25

molecule: COc1ccccc1NC(=O)OCC(O)CN1CCN(c2cccc(C(F)(F)F)c2)CC1 (stereo not drawn) [Compound 5a]
observed.property: MIC
unit.label: µg/mL
meas.value: 64

molecule: COc1ccccc1NC(=O)OCC(O)CN1CCN(c2ccc(F)cc2)CC1 (stereo not drawn) [Compound 5g]
observed.property: MIC
unit.label: µg/mL
meas.value: 64

###

This listing pairs compounds with measured MIC.
Test system: M. marinum CAMP 5644
Assay: antimycobacterial MIC, broth dilution micromethod
Type: cell-based
Settings: Mycobacterium marinum, CAMP5644, 504 h; Table S3; 21 days at 28 °C
observed.property: MIC (µg/mL)

compound: COc1ccc(NC(=O)OCC(O)CN2CCN(c3ccc(F)cc3)CC2)cc1 (stereo not shown)
tested.target: M. marinum CAMP 5644
observed.property: MIC
meas.value: 256
//
compound: NNC(=O)c1ccncc1 [INH, isoniazid, reference compound]
tested.target: M. marinum CAMP 5644
observed.property: MIC
meas.value: 64
//
compound: COc1ccc(NC(=O)OCC(O)CN2CCN(c3cccc(C(F)(F)F)c3)CC2)cc1 (stereo not shown)
tested.target: M. marinum CAMP 5644
observed.property: MIC
meas.value: 32
//
compound: CCOc1cccc(NC(=O)OCC(O)CN2CCN(c3cccc(C(F)(F)F)c3)CC2)c1.Cl (stereo not shown)
tested.target: M. marinum CAMP 5644
observed.property: MIC
meas.value: 64

###

Test system: M. marinum CAMP 5644
Assay: antimycobacterial MIC, broth dilution micromethod
Type: cell-based
Conditions: Mycobacterium marinum, CAMP5644, 504 h; Table S3; 21 days at 28 °C
This listing pairs molecules with measured MIC.

molecule: COc1cccc(NC(=O)OCC(O)CN2CCN(c3cccc(C(F)(F)F)c3)CC2)c1 (stereo not shown)
unit.label: µg/mL
MIC: 64
//
molecule: CCOc1ccc(NC(=O)OCC(O)CN2CCN(c3cccc(C(F)(F)F)c3)CC2)cc1 (stereo not shown)
unit.label: µg/mL
MIC: 128
//
molecule: COc1cccc(NC(=O)OCC(O)CN2CCN(c3ccc(F)cc3)CC2)c1 (stereo not shown)
unit.label: µg/mL
MIC: 128
//
molecule: CCOc1ccccc1NC(=O)OCC(O)CN1CCN(c2cccc(C(F)(F)F)c2)CC1 (stereo not shown)
unit.label: µg/mL
MIC: 64

###

System: Enterococcus faecalis ATCC 29212
Experiment: antibacterial MIC, microtitration broth method
Type: cell-based
Details: ATCC29212, Table S4, 24 h, 37 °C
Protocol: Prior to the testing, each strain was transferred into a nutrient agar (Oxoid Limited, Basingstoke, UK), which was enriched with 5% defibrinated bovine blood. The MICs were determined by the microtitration broth method in the cation-adjusted Mueller-Hinton broth (Becton Dickinson, Oxford, UK) according to an international interdisciplinary Clinical Laboratory Standard Institute guidelines. […]
This listing pairs compounds with measured MIC.
observed.property: MIC

compound: CC1(C)S[C@@H]2[C@H](NC(=O)[C@H](N)c3ccccc3)C(=O)N2[C@H]1C(=O)O [AMP, ampicillin, reference compound]
observed.property: MIC
meas.value: > 16 µg/mL
--
compound: COc1cccc(NC(=O)OCC(O)CN2CCN(c3ccc(F)cc3)CC2)c1 (centres unmarked) [Compound 5i]
observed.property: MIC
meas.value: > 256 µg/mL
--
compound: CCOc1ccccc1NC(=O)OCC(O)CN1CCN(c2ccc(F)cc2)CC1 (centres unmarked) [Compound 5h]
observed.property: MIC
meas.value: > 256 µg/mL
--
compound: COc1ccc(NC(=O)OCC(O)CN2CCN(c3cccc(C(F)(F)F)c3)CC2)cc1 (centres unmarked) [Compound 5e]
observed.property: MIC
meas.value: > 256 µg/mL
--
compound: CCOc1cccc(NC(=O)OCC(O)CN2CCN(c3ccc(F)cc3)CC2)c1.Cl (centres unmarked) [Compound 5j]
observed.property: MIC
meas.value: > 256 µg/mL
--
compound: CCOc1ccccc1NC(=O)OCC(O)CN1CCN(c2cccc(C(F)(F)F)c2)CC1 (centres unmarked) [Compound 5b]
observed.property: MIC
meas.value: > 256 µg/mL
--
compound: COc1cccc(NC(=O)OCC(O)CN2CCN(c3cccc(C(F)(F)F)c3)CC2)c1 (centres unmarked) [Compound 5c]
observed.property: MIC
meas.value: > 256 µg/mL
--
compound: CCOc1ccc(NC(=O)OCC(O)CN2CCN(c3ccc(F)cc3)CC2)cc1 (centres unmarked) [Compound 5l]
observed.property: MIC
meas.value: > 256 µg/mL

###

System: Candida albicans CCM 8261
Experiment: candidacidal MIC, microdilution method
Format: cell-based
Conditions: Candida albicans, CCM8261; 48 h, 37 °C
This listing pairs compounds with measured MIC.

compound: COc1cccc(NC(=O)OCC(O)CN2CCN(c3cccc(C(F)(F)F)c3)CC2)c1 (stereo not shown)
MIC: > 261 µM
--
compound: CCOc1ccc(NC(=O)OCC(O)CN2CCN(c3cccc(C(F)(F)F)c3)CC2)cc1 (stereo not shown)
MIC: > 254 µM
--
compound: CCOc1cccc(NC(=O)OCC(O)CN2CCN(c3cccc(C(F)(F)F)c3)CC2)c1.Cl (stereo not shown)
MIC: > 254 µM
--
compound: CCOc1ccc(NC(=O)OCC(O)CN2CCN(c3ccc(F)cc3)CC2)cc1 (stereo not shown)
MIC: > 282 µM
--
compound: CCOc1ccccc1NC(=O)OCC(O)CN1CCN(c2cccc(C(F)(F)F)c2)CC1 (stereo not shown)
MIC: > 254 µM
--
compound: COc1ccc(NC(=O)OCC(O)CN2CCN(c3cccc(C(F)(F)F)c3)CC2)cc1 (stereo not shown)
MIC: > 261 µM
--
compound: CCOc1cccc(NC(=O)OCC(O)CN2CCN(c3ccc(F)cc3)CC2)c1.Cl (stereo not shown)
MIC: > 282 µM
--
compound: CCOc1ccccc1NC(=O)OCC(O)CN1CCN(c2ccc(F)cc2)CC1 (stereo not shown)
MIC: > 282 µM
--
compound: COc1ccccc1NC(=O)OCC(O)CN1CCN(c2cccc(C(F)(F)F)c2)CC1 (stereo not shown)
MIC: > 261 µM
--
compound: C[C@@H]1[C@H](O)[C@@H](C)/C=C/C=C/C=C/C=C/C=C/C=C/C=C/[C@H](O[C@@H]2O[C@H](C)[C@@H](O)[C@H](N)[C@@H]2O)C[C@@H]2O[C@](O)(C[C@@H](O)C[C@@H](O)[C@H](O)CC[C@@H](O)C[C@@H](O)CC(=O)O[C@H]1C)C[C@H](O)[C@H]2C(=O)O [Amph. B, amphotericin B, reference compound]
MIC: 0.54 µM
--
compound: COc1cccc(NC(=O)OCC(O)CN2CCN(c3ccc(F)cc3)CC2)c1 (stereo not shown)
MIC: > 291 µM
--
compound: COc1ccc(NC(=O)OCC(O)CN2CCN(c3ccc(F)cc3)CC2)cc1 (stereo not shown)
MIC: > 291 µM
--
compound: COc1ccccc1NC(=O)OCC(O)CN1CCN(c2ccc(F)cc2)CC1 (stereo not shown)
MIC: > 291 µM

###

System: M. marinum CAMP 5644
Test: antimycobacterial MIC, broth dilution micromethod
Assay type: cell-based
Details: Mycobacterium marinum, CAMP5644, 504 h; Table S3; 21 days at 28 °C

molecule: CCOc1ccccc1NC(=O)OCC(O)CN1CCN(c2ccc(F)cc2)CC1 (stereo not drawn) [Compound 5h]
tested.target: M. marinum CAMP 5644
unit.label: µg/mL
MIC: 128

molecule: CCOc1cccc(NC(=O)OCC(O)CN2CCN(c3ccc(F)cc3)CC2)c1.Cl (stereo not drawn) [Compound 5j]
tested.target: M. marinum CAMP 5644
unit.label: µg/mL
MIC: 64

molecule: CCOc1ccc(NC(=O)OCC(O)CN2CCN(c3ccc(F)cc3)CC2)cc1 (stereo not drawn) [Compound 5l]
tested.target: M. marinum CAMP 5644
unit.label: µg/mL
MIC: 128

###

System: Enterococcus faecalis ATCC 29212
Experiment: antibacterial MIC, microtitration broth method
Assay type: cell-based
Conditions: ATCC29212, 24 h, 37 °C
observed.property: MIC

compound: COc1cccc(NC(=O)OCC(O)CN2CCN(c3ccc(F)cc3)CC2)c1 (stereo not shown) [Compound 5i]
meas.value: > 582 µM

compound: CCOc1cccc(NC(=O)OCC(O)CN2CCN(c3cccc(C(F)(F)F)c3)CC2)c1.Cl (stereo not shown) [Compound 5d]
meas.value: > 508 µM

compound: CCOc1ccc(NC(=O)OCC(O)CN2CCN(c3ccc(F)cc3)CC2)cc1 (stereo not shown) [Compound 5l]
meas.value: > 564 µM

compound: CCOc1ccc(NC(=O)OCC(O)CN2CCN(c3cccc(C(F)(F)F)c3)CC2)cc1 (stereo not shown) [Compound 5f]
meas.value: > 508 µM

compound: COc1ccc(NC(=O)OCC(O)CN2CCN(c3ccc(F)cc3)CC2)cc1 (stereo not shown) [Compound 5k]
meas.value: > 582 µM

compound: CCOc1cccc(NC(=O)OCC(O)CN2CCN(c3ccc(F)cc3)CC2)c1.Cl (stereo not shown) [Compound 5j]
meas.value: > 564 µM

compound: CCOc1ccccc1NC(=O)OCC(O)CN1CCN(c2ccc(F)cc2)CC1 (stereo not shown) [Compound 5h]
meas.value: > 564 µM

compound: COc1ccccc1NC(=O)OCC(O)CN1CCN(c2cccc(C(F)(F)F)c2)CC1 (stereo not shown) [Compound 5a]
meas.value: > 523 µM

compound: CC1(C)S[C@@H]2[C@H](NC(=O)[C@H](N)c3ccccc3)C(=O)N2[C@H]1C(=O)O [AMP, ampicillin, reference compound]
meas.value: > 45.8 µM

compound: COc1ccccc1NC(=O)OCC(O)CN1CCN(c2ccc(F)cc2)CC1 (stereo not shown) [Compound 5g]
meas.value: > 582 µM

compound: COc1cccc(NC(=O)OCC(O)CN2CCN(c3cccc(C(F)(F)F)c3)CC2)c1 (stereo not shown) [Compound 5c]
meas.value: > 523 µM

compound: COc1ccc(NC(=O)OCC(O)CN2CCN(c3cccc(C(F)(F)F)c3)CC2)cc1 (stereo not shown) [Compound 5e]
meas.value: > 523 µM

compound: CCOc1ccccc1NC(=O)OCC(O)CN1CCN(c2cccc(C(F)(F)F)c2)CC1 (stereo not shown) [Compound 5b]
meas.value: > 508 µM
